assay: Population PK: plasma-modeled parent MT Cmax,ss; format: in vivo, human; conditions: both sexes, human, plasma, oral, 8 mg/day, 8 mg/day – Group 4; read-out: Plasma-modeled parent MT Cmax,ss, Range
metric.name: Cmax

{"columns": ["compound", "result"],
 "data": [
  ["CN(C)c1ccc2c(c1)Sc1cc(N(C)C)ccc1N2 [hydromethylthionine]", "0.413 to 0.583 ng/mL"]
]}

###

assay: Population PK: plasma-modeled parent MT Cmax,ss; format: in vivo, human; details: both sexes, human, plasma, oral, 8 mg/day, 8 mg/day – Group 3; read-out: Plasma-modeled parent MT Cmax,ss, Mean (SD)
metric.name: Cmax (ng/mL)

{"columns": ["compound", "metric.name", "measured.number"],
 "data": [
  ["CN(C)c1ccc2c(c1)Sc1cc(N(C)C)ccc1N2 [hydromethylthionine]", "Cmax", 0.387]
]}
